// data source = patent US20190218277A1

Biological target: T1, Recombinant soluble E protein (0.8E-His) from DENV-4 (DENV-4, UniProt P09866 280-674)
T1 construct: also called DENV-4 E protein; DV4
pKd: −log10 of the molar value.
Examples of binders with documented pKd follow.

| BINDER | pKd |
| --- | --- |
| DG_3CH953-SG182/3CL499-SK1 (antibody, V domains shown) VH: QVQLVQSGPDVEKPGASVKVSCKASGYTFTSNYIHWVRQAPGQGLEWMGVINPRGGSRRSAQKFQGRITMTRDTSTSTVYMELSSLRSEDTAVYYCARGGRALFYDSYTTPFDGGSWWFDPWGQGSLVTVSS VL: DIQLTQSPSSLSASVGDRVTFTCQASQDIRKYLNWYQQKPGKAPKLLIYDASNLKFGVPSRFSGSGSGTDFTFTISSLQPEDVATYYCQQFDALPITFGQGTRLQIKR | 8.22 |
| DG_3CH912-SG182/3CL-SK1 (antibody, human IgG1, kappa, V domains shown) VH: QVQLVQSGPDVEKPGASVKVSCKASGYTFTSNYIHWVRQAPGQGLEWMGVINPRGGSRASAQKFQGRITMTRDTSTSTVYMELSSLRSEDTAVYYCARGGRALFYDSYTTPFDGGSWWFDPWGQGSLVTVSS VL: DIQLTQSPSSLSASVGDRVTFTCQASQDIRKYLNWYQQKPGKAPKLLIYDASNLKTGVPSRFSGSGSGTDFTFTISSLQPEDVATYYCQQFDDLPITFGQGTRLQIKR | 8.06 |
| DG_3CH-SG182/3CL-SK1 (antibody, human IgG1, kappa, V domains shown) VH: QVQLVQSGPDVEKPGASVKVSCKASGYTFTSNYIHWVRQAPGQGLEWMGVINPRGGSTASAQKFQGRITMTRDTSTSTVYMELSSLRSDDTAVYYCARGGRALFYDSYTTPRDGGSWWFDPWGQGSLVTVSS VL: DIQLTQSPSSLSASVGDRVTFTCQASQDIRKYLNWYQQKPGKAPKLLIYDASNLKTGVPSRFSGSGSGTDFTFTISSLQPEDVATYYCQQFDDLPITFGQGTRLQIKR | 7.77 |
| DG_3CH954-SG182/3CL-SK1 (antibody, V domains shown) VH: QVQLVQSGPDVEKPGASVKVSCKASGYTFTSNYIHWVRQAPGQGLEWMGVINPRGGSRRSAQKFQGRITMTRDTSTSTVYMELSSLRSEDTAVYYCARGGRALFYDSYTTPRDDGSWWFDPWGQGSLVTVSS VL: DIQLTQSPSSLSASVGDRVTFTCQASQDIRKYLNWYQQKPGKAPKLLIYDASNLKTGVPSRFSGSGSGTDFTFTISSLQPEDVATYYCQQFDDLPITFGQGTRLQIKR | 8.36 |
| DG_3CH955-SG182/3CL499-SK1 (antibody, human IgG1, kappa, V domains shown) VH: QVQLVQSGPDVEKPGASVKVSCKASGYTFTSNYIHWVRQAPGQGLEWMGVINPRGGSRRSAQKFQGRITMTRDTSTSTVYMELSSLRSEDTAVYYCARGGRALFYDSYTTPRDLGSWWFDPWGQGSLVTVSS VL: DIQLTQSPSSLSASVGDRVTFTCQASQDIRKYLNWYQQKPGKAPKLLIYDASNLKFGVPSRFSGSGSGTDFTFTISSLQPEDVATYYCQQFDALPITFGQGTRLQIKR | 8.08 |
